# MEASURED_ON: glucocorticoid receptor (GR) (Homo sapiens)
# Sequence (P04150 1-777): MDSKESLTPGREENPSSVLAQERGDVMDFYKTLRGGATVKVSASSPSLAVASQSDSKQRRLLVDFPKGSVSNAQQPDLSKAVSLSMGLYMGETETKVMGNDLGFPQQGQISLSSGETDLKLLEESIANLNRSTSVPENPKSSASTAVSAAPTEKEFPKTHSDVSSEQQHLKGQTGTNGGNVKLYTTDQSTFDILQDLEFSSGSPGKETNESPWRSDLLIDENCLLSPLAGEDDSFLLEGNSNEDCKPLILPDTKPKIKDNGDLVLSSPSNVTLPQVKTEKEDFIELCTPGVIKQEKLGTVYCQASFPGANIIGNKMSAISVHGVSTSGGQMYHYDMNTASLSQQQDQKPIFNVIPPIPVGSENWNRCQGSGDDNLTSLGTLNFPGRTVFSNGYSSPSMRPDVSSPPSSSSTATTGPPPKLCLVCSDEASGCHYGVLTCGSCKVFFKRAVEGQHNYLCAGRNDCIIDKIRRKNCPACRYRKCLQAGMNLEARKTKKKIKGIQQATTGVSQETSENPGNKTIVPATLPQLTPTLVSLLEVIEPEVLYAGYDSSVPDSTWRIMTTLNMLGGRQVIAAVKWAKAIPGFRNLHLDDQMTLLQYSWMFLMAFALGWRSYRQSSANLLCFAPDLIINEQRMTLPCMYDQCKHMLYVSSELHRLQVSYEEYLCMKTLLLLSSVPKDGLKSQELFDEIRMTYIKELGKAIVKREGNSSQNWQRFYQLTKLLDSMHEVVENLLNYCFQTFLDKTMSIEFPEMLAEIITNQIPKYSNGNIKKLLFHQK
# TEST_DETAILS: binding to recombinantly produced glucocorticoid receptor, Sf9 cytosol, [3H]-dexamethasone reference
# EXPERIMENTAL_PARAMETERS: recombinant GR
METRIC: pIC50
Give only the number. pIC50 is defined as minus log10 of concentration in molar units.

Problem: Endpoint output: pIC50 of CC(C)(CC(O)(CNc1cccc2c1cnn2-c1ccc(F)nc1)C(F)(F)F)c1cc(F)ccc1O (stereo not shown) [Example B7] . Value?
Result: 8.22

----------
# MEASURED_ON: androgen receptor (AR) (Homo sapiens, UniProt P10275)
# Sequence (P10275 whole entry, species assumed): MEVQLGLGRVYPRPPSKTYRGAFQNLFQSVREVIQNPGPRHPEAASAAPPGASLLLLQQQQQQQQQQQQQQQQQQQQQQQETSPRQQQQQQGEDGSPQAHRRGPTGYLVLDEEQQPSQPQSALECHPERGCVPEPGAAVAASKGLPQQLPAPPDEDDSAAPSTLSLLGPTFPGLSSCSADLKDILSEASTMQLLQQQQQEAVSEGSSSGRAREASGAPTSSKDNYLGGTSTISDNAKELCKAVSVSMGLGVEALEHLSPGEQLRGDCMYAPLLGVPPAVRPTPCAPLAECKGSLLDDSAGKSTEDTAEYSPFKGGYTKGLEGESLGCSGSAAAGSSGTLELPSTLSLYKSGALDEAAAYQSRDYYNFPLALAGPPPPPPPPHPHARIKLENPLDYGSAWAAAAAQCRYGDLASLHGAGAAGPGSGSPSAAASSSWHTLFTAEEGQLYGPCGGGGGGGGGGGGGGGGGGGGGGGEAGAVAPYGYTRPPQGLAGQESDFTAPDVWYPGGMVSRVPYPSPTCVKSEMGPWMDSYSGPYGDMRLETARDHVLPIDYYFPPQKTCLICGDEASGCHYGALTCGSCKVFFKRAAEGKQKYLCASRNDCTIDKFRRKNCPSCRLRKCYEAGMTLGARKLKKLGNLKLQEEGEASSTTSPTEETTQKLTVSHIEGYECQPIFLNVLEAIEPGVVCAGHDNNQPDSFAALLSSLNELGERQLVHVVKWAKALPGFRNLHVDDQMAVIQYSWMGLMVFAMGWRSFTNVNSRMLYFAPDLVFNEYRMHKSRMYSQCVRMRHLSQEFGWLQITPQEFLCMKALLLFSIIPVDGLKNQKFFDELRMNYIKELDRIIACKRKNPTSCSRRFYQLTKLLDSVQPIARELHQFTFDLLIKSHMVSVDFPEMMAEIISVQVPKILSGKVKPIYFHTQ
# TEST_DETAILS: binding to recombinantly produced androgen receptor
# EXPERIMENTAL_PARAMETERS: recombinant receptor
pIC50: −log10 of the molar value.
METRIC: pIC50

Problem: Endpoint output: pIC50 of CC(C)(CC(O)(CNc1cccc2c1cnn2-c1ccc(F)nc1)C(F)(F)F)c1cc(F)ccc1O (stereo not shown) . Value?
Result: < 6.00

----------
# MEASURED_ON: mineral corticoid receptor (MR) (Homo sapiens, UniProt P08235)
# Sequence (P08235 whole entry): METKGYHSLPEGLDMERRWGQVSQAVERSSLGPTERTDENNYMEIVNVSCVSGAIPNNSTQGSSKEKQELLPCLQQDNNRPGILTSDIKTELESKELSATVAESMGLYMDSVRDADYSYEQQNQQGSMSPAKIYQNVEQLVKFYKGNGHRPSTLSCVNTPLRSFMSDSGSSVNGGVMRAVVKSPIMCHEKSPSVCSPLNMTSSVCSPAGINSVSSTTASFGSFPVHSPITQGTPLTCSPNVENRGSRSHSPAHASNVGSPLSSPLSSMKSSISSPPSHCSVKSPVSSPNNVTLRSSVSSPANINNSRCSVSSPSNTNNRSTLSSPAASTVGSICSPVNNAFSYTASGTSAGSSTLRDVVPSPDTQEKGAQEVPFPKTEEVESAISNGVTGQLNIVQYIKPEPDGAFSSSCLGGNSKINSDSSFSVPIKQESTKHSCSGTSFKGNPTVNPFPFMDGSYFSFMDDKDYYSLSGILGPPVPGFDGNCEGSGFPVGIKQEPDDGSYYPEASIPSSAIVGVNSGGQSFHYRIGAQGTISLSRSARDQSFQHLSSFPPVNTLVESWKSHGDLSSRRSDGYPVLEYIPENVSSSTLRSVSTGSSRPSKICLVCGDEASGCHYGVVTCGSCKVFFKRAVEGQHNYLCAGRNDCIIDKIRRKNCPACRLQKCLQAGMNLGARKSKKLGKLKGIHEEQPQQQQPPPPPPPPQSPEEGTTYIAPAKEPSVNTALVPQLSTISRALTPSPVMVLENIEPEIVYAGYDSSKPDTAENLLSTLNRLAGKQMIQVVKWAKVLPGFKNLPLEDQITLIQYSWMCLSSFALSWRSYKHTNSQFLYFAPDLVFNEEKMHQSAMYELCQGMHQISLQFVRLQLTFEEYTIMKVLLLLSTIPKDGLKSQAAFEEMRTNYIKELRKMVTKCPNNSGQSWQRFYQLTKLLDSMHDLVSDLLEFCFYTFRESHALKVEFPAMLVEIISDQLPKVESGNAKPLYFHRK
# TEST_DETAILS: binding to recombinantly produced mineral corticoid receptor
# EXPERIMENTAL_PARAMETERS: recombinant receptor
# Experimental: The binding of the substances to the glucocorticoid receptor (GR) and other steroid hormone receptors (mineral corticoid receptor (MR), progesterone receptor (PR) and androgen receptor (AR)) is examined with the aid of recombinantly produced receptors. […] IC50(GR)=6.0 nM was thus measured for the compound from Example B7; IC50(MR), IC50(PR), IC50(AR)>1 μmol.
METRIC: IC50

Problem: Endpoint output: IC50 of CC(C)(CC(O)(CNc1cccc2c1cnn2-c1ccc(F)nc1)C(F)(F)F)c1cc(F)ccc1O (stereo not shown) . Value?
Result: > 1000 nM
